STUDY SYSTEM: T1, 284B
T1 construct: also called LHD284 B; LHD284 chainB
T1 chain: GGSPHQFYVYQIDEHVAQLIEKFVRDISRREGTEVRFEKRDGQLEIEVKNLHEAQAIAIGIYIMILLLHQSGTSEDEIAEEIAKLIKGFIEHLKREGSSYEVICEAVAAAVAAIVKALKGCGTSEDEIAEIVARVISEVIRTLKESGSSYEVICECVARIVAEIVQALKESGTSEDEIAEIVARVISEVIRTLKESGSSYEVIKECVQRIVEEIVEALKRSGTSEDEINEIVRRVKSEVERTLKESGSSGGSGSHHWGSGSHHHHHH
ASSAY: BLI, global kinetic fit, 1:1 model

# BINDER, READOUT UNIT, Kd
rows = [
    ("LHD284 chainA (designed binder, also called LHD284A) TDELLERLRQLFEELHERGTIIIVEVHINGERQTKYLILAPKEELKKHLERIREKIEREGSSEVEVKVTSGGTTWTFNEK", "nM", 8.9),
]

# credit: patent US20240368233A1
